- System: tRNA 2'-phosphotransferase TPT1 (Candida albicans SC5314)
- ASSAY_TEXT: tRNA 2'-phosphotransferase blockers, C. albicans – biochemical, fluorescence polarization, primary screen (AID 1962);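 also: plate controls were DMSO alone for no effect and ferristatin control at 100 nM for full effect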
- CONDITION_LABEL: recombinant caTPT1, FP RNA substrate dephosphorylation; at 5 µM
In all, about 300,000 compounds went through this assay and about 2,500 (0.83%) were called active.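 The calls were made as follows: active = inhibition above the mean of all tested compounds plus 3 SD, set per screening campaign (cut at about 24% in these data); inactive = the rest.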 What follows is part of a selection rich in actives, with near analogues and random picks from the rest.
Possible outcomes: 1 (active), 0 (inactive)

> print(dat)
                      smiles.representation  qualitative.label
1  COCCCn1c(SCc2cccc(OC)c2)nc2cc(OC)c(OC)cc2c1=N                  0
2  COc1cccc(-n2c(N)cc(=O)nc2SCC(=O)Nc2cc(C)on2)c1                  0
3  O=S(=O)(c1ccc(F)cc1)N1CCN(C(=S)NCc2ccco2)CC1                  0
4  Cc1cc(C)nc(N/N=C/c2ccc([N+](=O)[O-])o2)n1                  0
5  Cc1ccc(N2NC(=O)/C(=C/C=C/c3ccco3)C2=O)cc1C                  0
6  Cc1cccc2cc3c(N)c(C(=O)N4CCCc5ccccc54)sc3nc12                  1

* * *

- Test system: tRNA 2'-phosphotransferase TPT1 (Candida albicans SC5314)
- ASSAY_TEXT: tRNA 2'-phosphotransferase blockers, C. albicans – biochemical, fluorescence polarization, primary screen (AID 1962);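 also: plate controls were DMSO alone for no effect and ferristatin control at 100 nM for full effect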
- CONDITION_LABEL: recombinant caTPT1, FP RNA substrate dephosphorylation; at 5 µM; hits give high values
About 2,500 (0.83%) of roughly 300,000 compounds were called active. The sample as a whole holds a higher share of actives than the screen did.
# Lookup of reported inhibition keyed by entry
OBSERVED_PROPERTY: inhibition (%)

> print(dat)
                                   compound                         target.under.test  observed.property  numeric.value
1  CN1/C(=C\C=C2\N=C(c3ccc(F)cc3)OC2=O)C(C)(C)c2ccccc21  tRNA 2'-phosphotransferase TPT1 (Candida albicans SC5314)         inhibition            110
2  CCN1CCN(C(=O)N[C@@H](C(=O)N[C@@H]2C(=O)N3C(C(=O)O)=C(CSc4nnnn4C)CS[C@H]23)c2ccc(O)cc2)C(=O)C1=O  tRNA 2'-phosphotransferase TPT1 (Candida albicans SC5314)         inhibition          -2.09
3             CCOc1ccc(Oc2nc(C)cc(OC)n2)nn1  tRNA 2'-phosphotransferase TPT1 (Candida albicans SC5314)         inhibition          -1.74
4  Cc1cnc(C(=O)N2CCCC(C(=O)c3ccc(C(F)(F)F)cc3)C2)cn1 (stereo not given)  tRNA 2'-phosphotransferase TPT1 (Candida albicans SC5314)         inhibition          -2.98
5  CN1CCN(CCC(=O)N/N=C/C=C2\N(C)c3ccccc3C2(C)C)CC1  tRNA 2'-phosphotransferase TPT1 (Candida albicans SC5314)         inhibition           11.7

* * *

- Tested on: tRNA 2'-phosphotransferase TPT1 (Candida albicans SC5314)
- ASSAY_TEXT: tRNA 2'-phosphotransferase blockers, C. albicans – biochemical, fluorescence polarization, primary screen (AID 1962);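 also: plate controls were DMSO alone for no effect and ferristatin control at 100 nM for full effect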
- CONDITION_LABEL: recombinant caTPT1, FP RNA substrate dephosphorylation; at 5 µM
About 2,500 (0.83%) of roughly 300,000 compounds were called active.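 How the source made its calls: active means inhibition above the mean of all tested compounds plus 3 SD, set per screening campaign (cut at about 24% in these data); inactive means the rest.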 This excerpt belongs to a sample that is enriched for actives.
Possible outcomes: Yes for active, No for inactive

COMPOUND	QUALITATIVE_LABEL
CCOC(=O)c1ccccc1CN1C(=O)c2ccccc2S1(=O)=O	No
COc1cc(/C=N/Nc2nc3ccccc3s2)ccc1O	No
COC1(C2=NCCN2)COc2ccccc2O1 (configuration not stated)	No
OCC[C@H]1C[C@@H](O)[C@H](O)[C@]2(OCCCc3ccccc32)O1	No
CCOc1ccc(/C=C/C(=O)N(CC)CC(=O)NCc2cccs2)cc1OC	No
CCCC(=O)Nc1ncnc2c1ncn2[C@@H]1O[C@@H]2OP(=O)(O)OC[C@H]2[C@H]1OC(=O)CCC	No
C#CCOCCOCCOCCNc1nc(N2CCN(C(=O)[C@H](CCCCN)n3cc(CCC(=O)O)nn3)CC2)nc(N2CCN(C(=O)[C@H](CCCCN)n3cc(CC(C)O)nn3)CC2)n1 (some centres not stated)	No
COCCN(C(=O)c1ccccc1F)c1c(N)n(Cc2ccccc2)c(=O)[nH]c1=O	No
CCOC(=O)c1cc2c(=O)[nH]c(C(Cl)(Cl)Cl)nc2o1	No
COc1ccc(S(=O)(=O)NCC2CCCN(C(=O)c3occc3C)C2)cc1 (configuration not stated)	No
COc1ccc(/C=C(/NC(=O)c2ccc(C)cc2)c2nc3ccccc3[nH]2)cc1OC	No
COc1cc(/C=C2\C(=N)N3N=C(CC(=O)N4CCOCC4)SC3=NC2=O)cc(OC)c1OC	No
CCOC(=O)c1c(NC(=O)NC(C)(C)C)sc2c1CCN(C)C2	No
O=C(Nn1c(-c2ccccc2)nc2ccccc2c1=O)c1ccc([N+](=O)[O-])cc1	No
CCCCCCSc1ccc([C@@H]2[C@@H]3C(=O)N(CC)C(=O)[C@@H]3[C@]3(C(=O)OC)CCCCN23)cc1OC	No
COc1ccccc1-c1sc2ccccc2c1-c1ccc(C(C)=O)cc1	No
Cc1ccc([C@@H]2CC=C(C(=O)O)[C@H](c3cccc(Cl)c3)N2S(=O)(=O)c2ccc(C)cc2)cc1	No
CN(C)C(=O)N=NC(=O)N(C)C	No
CCc1cccc(C)c1N(C(=O)Cn1c(CO)nc2ccccc21)C(C)COC (configuration not stated)	No
Cc1cc(C)nc(NNC2=CC(=O)CC(C)(C)C2)n1	No
CC1CCN(C(=O)c2ccc(CSc3ccc(Cl)cc3)cc2)CC1	No
COC(=O)c1[nH]c2ccccc2c1NC(=O)CN1CCCc2ccccc21	No
COC1=C/C(=C/c2c(N)n3nc(CC(=O)N4CCOCC4)sc3nc2=O)C=CC1=O	No
CCCCN(CC)C(=O)C1CCCN(S(=O)(=O)c2cccc3nsnc23)C1 (configuration not stated)	No
NS(=O)(=O)c1cccc(NC(=O)CN2CCCc3ccccc32)c1	No
COc1ccc(-n2c(C)cc(C(=O)CN3C(=O)NC4(CCc5ccccc54)C3=O)c2C)cc1 (configuration not stated)	No
COc1cc(/C=C(\C#N)c2nc3ccccc3[nH]2)ccc1O	Yes
CCC(C)CN1CCC(CO)(Cc2ccccc2Cl)CC1 (configuration not stated)	No
CCOC(=O)c1c(NC(=S)Nc2ccccc2)sc2c1CCN(C)C2	Yes
COc1ccc(C2=NN(C(=O)c3ccccc3C(=O)O)C(c3ccccc3O)C2)cc1 (configuration not stated)	Yes
Fc1ccc2nc(Nc3nc4c(s3)CCCC4)sc2c1	Yes
O=S1(=O)CCO[C@H]2Cc3ccccc3[C@H]2N1Cc1ccccc1	No
COc1ccc(C2=NN(C(=O)c3cccnc3)C(c3ccccc3)C2)cc1 (configuration not stated)	No
CN(C)CCCn1c(N)c(C#N)c2nc(C#N)c(C#N)nc21	Yes
CC1CCCCC1NC(=O)CSc1nnc(-c2ccncc2)n1CCCN(C)C (configuration not stated)	No
Cc1nc2ccccc2cc1C(=O)N/N=C/c1ccc([N+](=O)[O-])cc1	No
S=C(Nc1cccc(Br)c1)N1CCn2cccc2C1c1cccnc1 (configuration not stated)	No
CC1CCN(C(=O)c2ccc3c(c2)NC(=O)CN3)CC1	Yes
COc1ccc(C2=NN(C(C)=O)C(c3ccccc3)C2)cc1 (configuration not stated)	No
Cc1nc2ccccc2nc(=O)c1NNc1ccc([N+](=O)[O-])cc1	Yes
CCNc1nc(NCC)nc(N/N=C/c2ccc(O)c(OC)c2)n1	No
Cc1cc(/C=C2/C(=N)N3C(=NC2=O)SN=C3S(C)(=O)=O)c(C)n1-c1ccccc1	No
